Values from patent US10654867B2

# TARGET_DESC: estrogen receptor alpha (ESR1) in MCF7 breast cancer cells (Homo sapiens, UniProt P03372)
# Sequence (P03372 1-595): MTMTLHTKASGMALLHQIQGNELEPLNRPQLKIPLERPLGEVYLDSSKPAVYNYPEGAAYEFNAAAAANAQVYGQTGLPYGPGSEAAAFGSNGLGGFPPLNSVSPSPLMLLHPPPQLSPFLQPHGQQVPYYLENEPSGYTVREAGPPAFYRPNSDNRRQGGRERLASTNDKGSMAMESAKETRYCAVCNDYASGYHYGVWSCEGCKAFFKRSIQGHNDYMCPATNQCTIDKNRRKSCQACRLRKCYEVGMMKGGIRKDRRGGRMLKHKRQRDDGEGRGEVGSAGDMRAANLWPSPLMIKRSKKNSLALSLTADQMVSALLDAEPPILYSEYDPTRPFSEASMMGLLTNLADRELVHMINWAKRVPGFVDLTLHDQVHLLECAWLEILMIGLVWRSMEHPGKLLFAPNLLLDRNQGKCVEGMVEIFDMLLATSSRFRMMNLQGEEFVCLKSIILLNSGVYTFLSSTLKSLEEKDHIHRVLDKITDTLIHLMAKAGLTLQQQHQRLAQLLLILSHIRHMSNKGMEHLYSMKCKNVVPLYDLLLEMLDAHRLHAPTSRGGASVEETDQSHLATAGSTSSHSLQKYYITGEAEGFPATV
# ASSAY_TEXT: Breast Cancer Cell ERa High Content Fluorescence Imaging Degradation Assay (ER-alpha MCF7 HCS)
# Format: cell-based
# Design: endogenous in cells; host or cells: MCF7 breast cancer cells
# EXPERIMENTAL_PARAMETERS: 4 hours, plateau of the maximal effect, DMSO and fulvestrant define 0% and 100% change in ESR1, Table 1a
VALUE_KIND: ER-alpha MCF7HCS Sinf (%)

C[C@@H]1Cc2c([nH]c3ccccc23)[C@]2(CCc3cc(OCCN4CC(CF)C4)ccc32)N1CC(C)(C)F
−94.7

A = C[C@@H]1Cc2c([nH]c3ccccc23)[C@]2(CCc3nc(OCCN4CC(CF)C4)ccc32)N1CC(F)(F)F
B = C[C@H]1Cc2[nH]c3ccccc3c2[C@H](c2c(F)cc(NC3CN(CCCF)C3)cc2F)N1CC(F)(F)CO (single isomer, unassigned)
C = C[C@@H]1Cc2c([nH]c3ccccc23)[C@H]2c3c(F)cc(OCCN4CC(CF)C4)cc3OCC(F)(F)CN21
Prompt line: Please give the order of these molecules when sorted by ER-alpha MCF7HCS Sinf, largest value leading. The reply should contain the labels ordered as requested.
Response line: B, C, A
(B: −30%, C: −50%, A: −96.5%)

====

# TARGET_DESC: estrogen receptor alpha (ESR1) in MCF7 breast cancer cells (Homo sapiens)
# ASSAY_TEXT: Breast Cancer Cell ERa High Content Fluorescence Imaging Degradation Assay (ER-alpha MCF7 HCS)
# Assay type: cell-based
# Parameters: endogenous in cells; host or cells: MCF7 breast cancer cells
# EXPERIMENTAL_PARAMETERS: 4 hours, plateau of the maximal effect, DMSO and fulvestrant define 0% and 100% change in ESR1, Table 1a
VALUE_KIND: ER-alpha MCF7HCS Sinf (%)

Worked cases, answers included:
C[C@@H]1Cc2[nH]c3ccccc3c2[C@@H](c2c(F)cc(OCCN3CC(CF)C3)cc2F)N1CC(F)(F)CO (single isomer, unassigned)
−95.7
C[C@@H]1Cn2c(cc3ccccc32)[C@@H](c2c(F)cc(OC3CN(CCCF)C3)cc2F)N1CC(C)(F)CO (some centres unmarked)
−97
C[C@H]1CCN(CC(C)(C)F)[C@H](c2c(F)cc(OCCN3CC(CF)C3)cc2F)c2[nH]c3ccccc3c21
−101

A = C[C@@](F)(CO)CN1CCCc2c([nH]c3ccccc23)[C@H]1c1c(F)cc(OCCN2CC(CF)C2)cc1F
B = C[C@H]1Cc2sc3ccccc3c2[C@H](c2ccc(OCCN3CC(CF)C3)cc2)N1CC(C)(C)F
Prompt line: Decide: A or B , by lowest recorded ER-alpha MCF7HCS Sinf. # answer = label of selected item
Response line: A
